Below, each entry is listed alongside its reported IC50.
assayedTarget: PAR4 (Homo sapiens (Human), UniProt Q96RI0)
Sequence (Q96RI0 18-385): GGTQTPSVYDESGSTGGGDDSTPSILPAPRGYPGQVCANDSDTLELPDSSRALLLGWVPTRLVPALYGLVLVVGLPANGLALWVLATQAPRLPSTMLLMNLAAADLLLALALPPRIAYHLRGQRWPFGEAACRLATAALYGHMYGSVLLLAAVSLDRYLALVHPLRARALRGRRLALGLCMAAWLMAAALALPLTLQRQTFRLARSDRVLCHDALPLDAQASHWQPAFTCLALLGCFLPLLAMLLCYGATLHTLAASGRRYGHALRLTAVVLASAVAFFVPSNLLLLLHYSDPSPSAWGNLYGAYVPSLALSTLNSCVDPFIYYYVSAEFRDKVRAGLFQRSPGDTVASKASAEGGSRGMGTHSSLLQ
assaySummary: FLIPR assay in PAR4-expressing HEK293 cells (PAR4 antagonist activity, calcium mobilization)
Assay type: cell-based
runConditions: FLIPR assay as described in Example A
Source text: The FLIPR assay is an exemplary in vitro assay for measuring the activity of the PAR4 antagonists of the present invention. In this assay, intracellular calcium mobilization is induced in PAR4 expressing cells by a PAR4 agonist and calcium mobilization is monitored. See, e.g., Example A. […]
State the answer as a number, implicitly in nM.

The examples below pair each entry with its known result.
# compound, assayedTarget, IC50 [nM]
data = [
    ("COc1nn2cc(-c3cc4c(C)cc(C)cc4o3)nc2s1 [Example 297]", "PAR4 (Homo sapiens (Human), UniProt Q96RI0)", 5.88),
    ("CSc1nn2cc(-c3nc4c(OCC5CC5)cccc4o3)nc2s1 [Example 175]", "PAR4 (Homo sapiens (Human), UniProt Q96RI0)", 41.3),
    ("COc1nn2cc(-c3cc4cccc(C)c4o3)nc2s1 [Example 89]", "PAR4 (Homo sapiens (Human), UniProt Q96RI0)", 28.2),
    ("CSc1nn2cc(-c3nc4c(OC[C@H]5CCCN5C(=O)[C@H](NC(=O)OC(C)(C)C)c5ccccc5)cccc4o3)nc2s1 [Example 333]", "PAR4 (Homo sapiens (Human), UniProt Q96RI0)", 566),
]

[ask] // lookup IC50 for COc1cc(OC)c2cc(-c3cn4nc(OC)sc4n3)oc2c1 [Example 73]
[reply] 0.99

[ask] Quick check: IC50 of COc1cc(OCc2cccc(OCc3c(F)cccc3Cl)c2)c2cc(-c3cn4nc(OC)sc4n3)oc2c1 [Example 370] ?
[reply] 5.3

###

Test system: human washed platelets
assaySummary: Alpha-thrombin induced platelet aggregation assay
Format: cell-based
runConditions: Homo sapiens, Platelet, 0.1 h, […] alpha-thrombin, AUC at 6 min, n=4; read-out: IC50 for the inhibition of platelet aggregation
measurementName: pIC50
// scale note: pIC50 = -log10(conc_M); give the bare number

[ask] Tell me the measured pIC50 of COc1cc(OCc2ccccc2)c2cc(-c3cn4nc(OC)sc4n3)oc2c1 , please.
[reply] 5.96

###

assayedTarget: PAR4 (Homo sapiens (Human))
assaySummary: FLIPR assay in PAR4-expressing HEK293 cells (PAR4 antagonist activity, calcium mobilization)
Type: cell-based
runConditions: FLIPR assay as described in Example A
pIC50: −log10 of the molar value.
Assign criterion met to entries whose pIC50 meets or exceeds 8; assign criterion not met to the rest.

[ask] Reported pIC50 at or above 8? COc1nn2cc(-c3cc4c(OCc5cccc(OCc6cccc(C)c6)c5)c(Cc5ccccc5)c(OC)cc4o3)nc2s1 [Example 387]
[reply] criterion not met

[ask] Hi team, for COc1cc(OCc2cccc(OCc3c(Cl)cccc3Cl)c2)c2cc(-c3cn4nc(OC)sc4n3)oc2c1 [Example 368] , is the recorded pIC50 at or above 8?
[reply] criterion met

[ask] Check if pIC50 >= 8 (inclusive). Item: COc1cc(OCc2cccc(OCc3ccccc3)c2)c2cc(-c3cn4nc(Cl)sc4n3)oc2c1 [Example 405]
[reply] criterion met

[ask] Tell me whether pIC50 is at least 8 here: COc1ccc(COc2ccc3nc(-c4cn5nc(SC)sc5n4)oc3c2)cc1 [Example 170]
[reply] criterion not met

[ask] Is the recorded value of pIC50 equal to or greater than 8 for this compound? COc1cc(COc2cc(OC)cc3oc(-c4cn5nc(OC)sc5n4)cc23)cc(OCc2ccccc2)c1 [Example 404]
[reply] criterion met

[ask] Does COc1cc(OCc2cccc(OCc3ccccc3OC)c2)c2cc(-c3cn4nc(OC)sc4n3)oc2c1 [Example 309] have a reported pIC50 of at least 8?
[reply] criterion met

[ask] Hi team, for CC(F)c1nn2cc(-c3cc4ccc(F)cc4o3)nc2s1 (centres unmarked) [Example 245] , is the recorded pIC50 at or above 8?
[reply] criterion not met

###

Parameter IC50: see the listing below.
assayedTarget: PAR4 (Homo sapiens (Human), UniProt Q96RI0)
assaySummary: FLIPR assay in PAR4-expressing HEK293 cells (PAR4 antagonist activity, calcium mobilization)
Assay type: cell-based
runConditions: FLIPR assay as described in Example A
Put your answer as a value accompanied by its unit after it.

# structureNotation, IC50
records = [
    ("CSc1nn2cc(-c3nc4c(OC[C@@H]5CCCN5C(=O)[C@H](NC(=O)c5ccccc5)c5ccccc5)cccc4o3)nc2s1", "0.401 µM"),
    ("COc1cc(OCc2ccc(C)c(OCc3ccccc3)c2)c2cc(-c3cn4nc(OC)sc4n3)oc2c1", "0.00361 µM"),
    ("COc1nn2cc(-c3cc4cccc(F)c4o3)nc2s1", "0.0207 µM"),
]

Now look at this one.
[ask] Bench note: what IC50 did COCOc1cccc2oc(-c3cn4nc(SC)sc4n3)nc12 show?
[reply] 0.0395 µM

###

assayedTarget: PAR4 (Homo sapiens (Human), UniProt Q96RI0)
assaySummary: FLIPR assay in PAR4-expressing HEK293 cells (PAR4 antagonist activity, calcium mobilization)
Assay type: cell-based
runConditions: FLIPR assay as described in Example A
Listed here are molecules together with their documented pIC50.
Please report pIC50 as the negative decimal logarithm of the molar concentration, giving only the number.

Examples from the recorded data:
# molecule, dataValue
records = [
    ("COc1cc(OC[C@H]2CCCN2C(=O)c2ccc(F)cc2)c2cc(-c3cn4nc(OC)sc4n3)oc2c1", 7.66),
    ("COc1cc(OCc2cccc(OCc3cc(OC)c(OC)c(OC)c3)c2)c2cc(-c3cn4nc(OC)sc4n3)oc2c1", 8.95),
    ("CCc1nn2cc(-c3nc4ccc(OCc5cccc(Cl)c5)cc4o3)nc2s1", 7.18),
    ("CSc1nn2cc(-c3nc4c(OCc5ccc(C(F)(F)F)cc5)cccc4o3)nc2s1", 6.52),
    ("COc1nn2cc(-c3cc4c(OCc5cccc(OCc6ccccc6)c5)cc(NC(C)=O)cc4o3)nc2s1", 7.14),
    ("CCc1nn2cc(-c3nc4c(C)cccc4o3)nc2s1", 6.34),
    ("CCOc1cccc2oc(-c3cn4nc(SC)sc4n3)nc12", 7.16),
]

[ask] What does the record list as pIC50 for COCOc1c(Br)ccc2oc(-c3cn4nc(OC)sc4n3)cc12 [Example 217A] ?
[reply] 7.35

###

assayedTarget: PAR4 (Homo sapiens (Human), UniProt Q96RI0)
assaySummary: FLIPR assay in PAR4-expressing HEK293 cells (PAR4 antagonist activity, calcium mobilization)
Format: cell-based
runConditions: FLIPR assay as described in Example A
Field 'label' (enum: condition met / condition not met). Set to condition met when IC50 is strictly under 1000 nM; else condition not met.

Please review the entries below; each comes with its answer.
# structureNotation, className
measured = [
    ("COc1cc(OCc2cccc(OCc3cncnc3)c2)c2cc(-c3cn4nc(OC)sc4n3)oc2c1", "condition met"),
    ("CCc1nn2cc(-c3nc4ccc(OCC5CCCCC5)cc4o3)nc2s1", "condition not met"),
    ("Cc1cc(C(F)(F)F)c2cc(-c3cn4nc(Br)sc4n3)oc2n1", "condition not met"),
    ("CSc1nn2cc(-c3cc4ccc(C)c(C)c4o3)nc2s1", "condition met"),
]

[ask] Could you please tell me whether IC50 recorded for COc1cc(OCc2cccc(OCc3cccc4ccccc34)c2)c2cc(-c3cn4nc(OC)sc4n3)oc2c1 is less than 1000 nM?
[reply] condition met

###

Below, each of the molecules is paired with its reported IC50 value.
assayedTarget: PAR4 (Homo sapiens (Human))
assaySummary: FLIPR assay in PAR4-expressing HEK293 cells (PAR4 antagonist activity, calcium mobilization)
Type: cell-based
runConditions: FLIPR assay as described in Example A
// return numeric value only (unit: nM, not printed)

Worked examples, 4 molecules total:
# molecule, dataValue
records = [
    ("CCc1nn2cc(-c3cc4cccc(OCCCC#N)c4o3)nc2s1 [Example 66]", 2620),
    ("CSc1nn2cc(-c3cc4cc(OCc5ccccc5)ccc4o3)nc2s1 [Example 230]", 2300),
    ("CSc1nn2cc(-c3nc4ccc(OCc5ccccn5)cc4o3)nc2s1 [Example 117]", 654),
    ("Cc1ccc2oc(-c3cn4nc(C)sc4n3)nc2c1 [Example 112]", 382),
]

[ask] Given the molecule Cc1nn2cc(-c3cc4ccccc4o3)nc2s1 [Example 41] , what is its reported IC50?
[reply] 18.6
